# Assay Procedure: AP1 Signaling Pathway (AID 357);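 further: ME-180 reporter cells stimulated with EGF at its EC50 level; on the % scale 0 is the no-effect control and ±100 the full control effect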
# Test Parameters: ME-180 (cervical carcinoma) AP-1-bla reporter, EGF-induced, beta-lactamase ratio, 5 h; at 38 µM (top of the series) unless noted
Inconclusive results are not listed.
Recorded Endpoint: activity change, negative = inhibition (%)
Answers are plain numbers, in %.

Example cases with answers are listed next.
Cc1ccc2c(c1)C(N1CCN(C)CC1)=Nc1cccnc1N2
22.6
CC[N+](CC)(CC)CC(=O)Nc1c(C)cccc1C
6.05
Nc1nc2[nH]c(=O)cnc2c(=O)[nH]1
6.93
Nc1ncnc2c1ncn2C1CCCC1
-12.9
COc1ccc(NC(=O)c2ccc(-c3ccc(-c4noc(C)n4)cc3C)cc2)cc1N1CCN(C)CC1
-2.61

Please report activity change, negative = inhibition for every entry that follows.
1. CC(=O)N[C@@H](Cc1c[nH]c2ccccc12)C(=O)OCc1cc(C(F)(F)F)cc(C(F)(F)F)c1
2. N#C/C(=C\c1ccc(O)c(O)c1)C(=O)NCCCNC(=O)/C(C#N)=C/c1ccc(O)c(O)c1
3. O=C(O)/C(=C/c1c(C(=O)O)[nH]c2cc(Cl)cc(Cl)c12)c1ccccc1
4. N=C(N)SCCc1cnc[nH]1
5. NC(=Nc1ccccc1)NC(=O)c1nc(Cl)c(N)nc1N
6. O=C(OCCN1CCOCC1)C1(c2ccccc2)CCCCC1

# output
1. 10.1
2. -12.1
3. 1.71
4. 5.57
5. -5.68
6. -11.4
